Assay: Cytotoxicity against mouse BA/F3 cells assessed as cell viability at 10 to 50 ug/ml incubated for 24 hrs by WST-1 assay relative to control
Format: cell-based, BaF3
Conditions: at 10 to 50 µg/mL, dose 10-50 µg/ml, read-out: Activity
# maps each entry to its viability at 24 h

Guide cases for viability at 24 h, answers given:
O=C(/C=C/c1c[nH]c2ccccc12)c1ccc(-c2cccs2)cc1
> 60%
O=C(/C=C/c1c[nH]c2ccccc12)c1ccc(-c2ccoc2)cc1
> 60%

Record `O=C1CCC/C1=C\c1cc2ccccc2[nH]1` . Reported viability at 24 h: > 60%

---

Experiment: Cytotoxicity against human Mo7e cells assessed as cell viability at 10 to 50 ug/ml incubated for 24 hrs by WST-1 assay relative to control
Format: cell-based, M07E
Details: at 10 to 50 µg/mL, dose 10-50 µg/ml, read-out: Activity
VALUE TYPE: viability at 24 h

O=C1CCC/C1=C\c1cc2ccccc2[nH]1
> 80%
O=C(/C=C/c1c[nH]c2ccccc12)c1ccc(-c2ccoc2)cc1
> 80%

Please turn your attention to the following entry.
Record `O=C(/C=C/c1c[nH]c2ccccc12)c1ccc(-c2cccs2)cc1` . Reported viability at 24 h: > 80%

---

Test system: Mycobacterium tuberculosis
Assay: Antimycobacterial activity against Mycobacterium tuberculosis H37Rv assessed as inhibition of bacterial growth at 50 ug/ml preincubated for 72 hrs followed by phAE202 and Cacl2 addition and measured after 4 hrs by luciferase reporter mycobacterio-phage assay
Assay type: functional
Details: time 76 hrs
# maps each entry to its inhibition at 50 µg/mL
Field note: include the unit after the figure.

O=C(/C=C/c1c[nH]c2ccccc12)c1ccc(-n2ccnc2)cc1
63.6%

Please turn your attention to the following entry.
Record `O=C(/C=C/c1c[nH]c2ccccc12)c1ccncc1` . Reported inhibition at 50 µg/mL: 58.4%

---

# maps each entry to its inhibition at 50 µg/mL
System: Mycobacterium tuberculosis
Assay: Antimycobacterial activity against Mycobacterium tuberculosis H37Rv assessed as inhibition of bacterial growth at 50 ug/ml preincubated for 72 hrs followed by phAE202 and Cacl2 addition and measured after 4 hrs by luciferase reporter mycobacterio-phage assay
Format: functional
Conditions: time 76 hrs
Respond numerically; units are % and should not be typed.

Guide cases for inhibition at 50 µg/mL, answers given:
O=C(/C=C/c1c[nH]c2ccccc12)c1ccc(Cl)cc1Cl
52.3
Nc1cccc(C(=O)/C=C/c2c[nH]c3ccccc23)c1
37.2
O=C(/C=C/c1c[nH]c2ccccc12)c1ccc(-c2cccs2)cc1
82
O=C1CCC/C1=C\c1cc2ccccc2[nH]1
84.3
O=C(/C=C/c1c[nH]c2ccccc12)N1CCN(c2ccc(O)cc2)CC1
63.8
O=C(/C=C/c1c[nH]c2ccccc12)c1ccc(Cl)cc1
48.6

Item `O=C(/C=C/c1c[nH]c2ccccc12)c1cccc(C(F)(F)F)c1` was tested on Mycobacterium tuberculosis; the reported inhibition at 50 µg/mL is 24.5

---

Test system: Mycobacterium tuberculosis
Test: Antimycobacterial activity against Mycobacterium tuberculosis H37Rv assessed as inhibition of bacterial growth at 50 ug/ml preincubated for 72 hrs followed by phAE202 and Cacl2 addition and measured after 4 hrs by luciferase reporter mycobacterio-phage assay
Assay type: functional
Conditions: time 76 hrs
VALUE TYPE: inhibition at 50 µg/mL (%)
Respond numerically; units are % and should not be typed.

Guide cases for inhibition at 50 µg/mL, answers given:
O=C(/C=C/c1c[nH]c2ccccc12)c1cccc([N+](=O)[O-])c1
48.7
O=C(/C=C/c1c[nH]c2ccccc12)c1ccccn1
53.1
O=C(/C=C/c1c[nH]c2ccccc12)c1ccc(C(F)(F)F)cc1
29.7
O=C(/C=C/c1c[nH]c2ccccc12)c1ccc2ccccc2c1
30.8
COc1ccc(C(=O)/C=C/c2c[nH]c3ccccc23)cc1OC
27.1

Please turn your attention to the following entry.
Record `O=C(/C=C/c1c[nH]c2ccccc12)c1ccc(-c2ccoc2)cc1` . Reported inhibition at 50 µg/mL: 85.3
